Hi there, I'd appreciate the recorded self-cleavage kobs at 2500 uM GlcN6P for every entry that follows.
B1: glmS ribozyme (parent)
chain: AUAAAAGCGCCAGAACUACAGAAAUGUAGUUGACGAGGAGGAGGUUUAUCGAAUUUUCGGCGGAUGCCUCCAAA

variants of: B1; experiment: self-cleavage kobs at 2500 uM GlcN6P; higher = faster cleavage; RNA array; conditions: with glucosamine-6-phosphate
Fewer inactive variants are shown than the library holds.

Qu. Quick check: self-cleavage kobs at 2500 uM GlcN6P of U69G C71G ?
Ans. 3.23e-05 s⁻¹

Qu. Consider the variant shown here: G32A G43C What is its recorded self-cleavage kobs at 2500 uM GlcN6P?
Ans. < 1e-05 s⁻¹

Qu. Entry U30A G37A G59C : reported self-cleavage kobs at 2500 uM GlcN6P = ?
Ans. < 1e-05 s⁻¹

Qu. Requested read-out: self-cleavage kobs at 2500 uM GlcN6P. Entry: A36C G41A
Ans. < 1e-05 s⁻¹

Qu. Would you kindly share the measured self-cleavage kobs at 2500 uM GlcN6P for C11A C16A A42C ?
Ans. < 1e-05 s⁻¹

Qu. // self-cleavage kobs at 2500 uM GlcN6P lookup, key: A12C G66U C70U
Ans. 0.00128 s⁻¹

Qu. Give the measured self-cleavage kobs at 2500 uM GlcN6P of G9U U45C .
Ans. < 1e-05 s⁻¹

Qu. Entry G9U C16U has what self-cleavage kobs at 2500 uM GlcN6P?
Ans. < 1e-05 s⁻¹

Qu. Please look up its self-cleavage kobs at 2500 uM GlcN6P: G7A C11A A12U G32A G60A C61G
Ans. < 1e-05 s⁻¹

Qu. Fill blank: measured self-cleavage kobs at 2500 uM GlcN6P of the variant G9A G44C C68A is ____.
Ans. < 1e-05 s⁻¹

Qu. Reported self-cleavage kobs at 2500 uM GlcN6P, variant G7A G40A A42C C67G : ____
Ans. < 1e-05 s⁻¹
